Here, each record is paired with measured IC50 data.
# experimental.system: recombinant human SYK (GST-hSYK fusion protein) (Homo sapiens)
# method.description: biochemical
# assay.setup: rhSYK Activity, Table 113B

Before answering, review these 5 worked examples.
| molecule | IC50 |
| --- | --- |
| CCOC(=O)C1CC(C)C(O)(c2ncc(-c3cc(C)cc(Nc4nccc(C)n4)c3)s2)CC1C (stereo not drawn) [Example 113B-7] | < 100 nM |
| Cc1cc(Nc2nccc(C)n2)cc(-c2cnc(C3(O)CC(C)C(C(=O)OC(C)C)C(C)C3)s2)c1 (stereo not drawn) [Example 113B-23] | 100 to 1000 nM |
| CCOC(=O)C1CC(C)C(O)(c2ncc(-c3cc(C)cc(Nc4nccc(C)n4)c3)s2)CC1C (stereo not drawn) [Example 113B-8] | < 100 nM |
| CCOC(=O)C1CC(C)C(O)(c2ncc(-c3cc(C)cc(Nc4nccc(C)n4)c3)s2)CC1C (stereo not drawn) [Example 113B-9] | < 100 nM |
| Cc1cc(Nc2nccc(C)n2)cc(-c2cnc(C3(O)CC(C)C(C(=O)O)C(C)C3)s2)c1 (stereo not drawn) [Example 113B-21] | < 100 nM |

For the next question, use this molecule.
GET /values?readout=IC50&item= CCOC(=O)C1CC(C)C(O)(c2ncc(-c3cc(C)cc(Nc4nccc(C)n4)c3)s2)C(C)C1 (stereo not drawn) [Example 113B-29] < 100 nM

----------
# experimental.system: recombinant human SYK (GST-hSYK fusion protein) (Homo sapiens, UniProt P43405)
# assay.setup: read-out: rhSYK Activity; Table 8A
result.type: IC50

GET /values?readout=IC50&item= Cc1cc(Nc2nccc(C(F)(F)F)n2)cc(-c2cnc(C3(O)CCC(O)C(C)(C)C3)s2)c1 (stereo not shown) < 100 nM

----------
# experimental.system: UniProtKB P43405
# assay.setup: read-out: rhSYK Activity; class symbol; where two forms are listed, one symbol per form
pIC50: −log10 of the molar value.
Here, each record is paired with measured pIC50 data.

| compound | experimental.system | pIC50 |
| --- | --- | --- |
| Cc1cc(Nc2nccc(C(F)(F)F)n2)cc(-c2cnc(C(C)(O)c3ccc(S(=O)(=O)N(C)C)cc3)s2)c1 (stereo not shown) | UniProtKB P43405 | 6.00 to 7.00 |
| COc1ccsc1C(C)(O)c1ncc(-c2cc(C)cc(Nc3nccc(C(F)(F)F)n3)c2)s1 (stereo not shown) | UniProtKB P43405 | > 7.00 |
| OC1(c2ncc(-c3cc(Nc4nccc(C(F)(F)F)n4)ccc3OCc3ccccc3)s2)CCC1 | UniProtKB P43405 | 6.00 to 7.00 |

For the next question, use this compound.
GET /values?readout=pIC50&item= COc1cc(C(C)(O)c2ncc(-c3cc(C)cc(Nc4nccc(C(F)(F)F)n4)c3)s2)ccc1C(=O)O (single isomer, unassigned) [Example 4A-65] > 7.00

----------
Here, each record is paired with measured pIC50 data.
# experimental.system: recombinant human SYK (GST-hSYK fusion protein) (Homo sapiens)
# method.description: biochemical
# assay.setup: rhSYK Activity, Table 33D
pIC50: −log10 of the molar value.

Before answering, review these 5 worked examples.
| compound | pIC50 |
| --- | --- |
| Cc1cc(Nc2nccc(C(F)(F)F)n2)cc(-c2cnc(C(C)(O)c3ccc(C(=O)O)s3)s2)c1 (single isomer, unassigned) [Example 33D-21] | > 7.00 |
| COC(=O)c1ccc(C(C)(O)c2ncc(-c3cc(C)cc(Nc4nccc(C(F)(F)F)n4)c3)s2)cc1 (centres unmarked) [Example 33D-17] | > 7.00 |
| Cc1cc(Nc2nccc(C(F)(F)F)n2)cc(-c2cnc(C(C)(O)c3ccc(C(=O)O)s3)s2)c1 (centres unmarked) [Example 33D-20] | > 7.00 |
| Cc1cc(Nc2nccc(C(F)(F)F)n2)cc(-c2cnc(C(O)(c3ccc(/C=C/C(=O)O)cc3)C3CC3)s2)c1 (centres unmarked) [Example 33D-24] | > 7.00 |
| COC(=O)C(C)(C)OCC(C)(O)c1ncc(-c2cc(C)cc(Nc3nccc(C(F)(F)F)n3)c2)s1 (centres unmarked) [Example 33D-8] | > 7.00 |

Can you look up pIC50 on recombinant human SYK (GST-hSYK fusion protein) (Homo sapiens) for Cc1cc(Nc2nccc(C(F)(F)F)n2)cc(-c2cnc(C(C)(O)CC(C)(C)C(=O)O)s2)c1 (centres unmarked) [Example 33D-9] ? > 7.00

Also, Cc1cc(Nc2nccc(C(F)(F)F)n2)cc(-c2cnc(C(C)(O)CCC(C)(C)C(=O)O)s2)c1 (single isomer, unassigned) [Example 33D-3] please. > 7.00

Also, Cc1cc(Nc2nccc(C(F)(F)F)n2)cc(-c2cnc(C(C)(O)c3ccc(OC(C)C(=O)O)cc3)s2)c1 (centres unmarked) [Example 33D-13] please. > 7.00

Also, Cc1cc(Nc2nccc(C(F)(F)F)n2)cc(-c2cnc(C(C)(O)COC(C)(C)C(=O)O)s2)c1 (centres unmarked) [Example 33D-7] please. > 7.00

Also, Cc1cc(Nc2nccc(C(F)(F)F)n2)cc(-c2cnc(C(O)(CCCC(=O)O)c3ccncc3)s2)c1 (centres unmarked) [Example 33D-25] please. > 7.00

Also, COC(=O)C(C)(C)CCC(C)(O)c1ncc(-c2cc(C)cc(Nc3nccc(C(F)(F)F)n3)c2)s1 (centres unmarked) [Example 33D-4] please. > 7.00

Also, Cc1cc(Nc2nccc(C(F)(F)F)n2)cc(-c2cnc(C(C)(O)c3c(C)nn(CCC(=O)O)c3C)s2)c1 (centres unmarked) [Example 33D-19] please. > 7.00

Also, Cc1cc(Nc2nccc(C(F)(F)F)n2)cc(-c2cnc(C(C)(O)CCC(=O)O)s2)c1 (centres unmarked) [Example 33D-10] please. > 7.00

Also, Cc1cc(Nc2nccc(C(F)(F)F)n2)cc(-c2cnc(C(C)(O)CCC(C)(C)C(=O)O)s2)c1 (centres unmarked) [Example 33D-1] please. > 7.00
